All figures here come from ChEMBL document CHEMBL3616436.

We begin with a simple list: items and their reported CC50.
- methodNotes: Cytotoxicity against BHK cells assessed as cell viability after 48 to 96 hrs by MTT assay
- Assay type: cell-based, Mesocricetus auratus
- testConditions: hamster
All answers are understood in µM, so give the number only.

{"columns": ["molecule", "CC50 (µM)"],
 "data": [
  ["FC(F)(F)c1cccc(NC(=S)Nc2cccc(Cl)c2)c1", 9.5]
]}

**Q:** Which measured CC50 value corresponds to "FC(F)(F)c1cccc(NC(=S)Nc2ccc(Cl)c(Cl)c2)c1" ?
**A:** 9.5

**Q:** Try "CCCCc1ccc(NC(=S)Nc2cccc(C(F)(F)F)c2)c(C)c1" next.
**A:** 9

**Q:** Try "O=[N+]([O-])c1ccc(NC(=S)Nc2cccc(C(F)(F)F)c2)cc1" next.
**A:** 9.5
